tested on: JURKAT; experiment: selective drug sensitivity score (sDSS, relative to normal bone marrow) (sDSS (score)); higher = more potent and effective on the cell line relative to normal bone marrow cells; details: 72 h;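 further: ALL cell lines in 384-well plates, five doses spanning 10,000-fold, each plate scaled between vehicle and 100 µmol/L benzalkonium chloride controls, sDSS an adapted area-under-curve metric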
Note to self: values exactly at 0 are YES. So selective drug sensitivity score at or above 0 is YES, below is NO.

Some solved entries appear below for comparison.
# molecule, system, label class
measured = [
    ("COc1cc(OC2CCN(C)CC2)ccc1Nc1ncc2c(n1)n(C1CCCC1)c(=O)n2C [AZ3146] (top concentration 10000 nM)", "JURKAT", "YES"),
    ("CCN(CC)CCCC(C)Nc1c2ccc(Cl)cc2nc2ccc(OC)cc12 (configuration not stated) [Mepacrine] (top concentration 50000 nM)", "JURKAT", "NO"),
    ("CCOC(=O)CCNc1cc(N2CCc3ccccc3CC2)nc(-c2ccccn2)n1 [GSK-J4] (top concentration 100000 nM)", "JURKAT", "NO"),
    ("CNC(=O)c1ccccc1Nc1nc(Nc2ccc3c(c2OC)CCC[C@H](N2CCN(CCO)CC2)C3)ncc1Cl (top concentration 5000 nM)", "JURKAT", "NO"),
]

Okay, next one:
Could you please find out whether CN(C)Cc1c(C(=O)NCCOc2ccc(C(=O)NO)cc2)oc2ccccc12 [Abexinostat] (top concentration 10000 nM) has selective drug sensitivity score that meets 0 or exceeds it?
YES
